// values below are reported MIC
test system: Staphylococcus aureus; experiment: Antibacterial activity against Staphylococcus aureus 794 incubated for 18 to 24 hrs by broth microdilution method; assay type: functional; conditions: time 18-24 hrs
Non-standard residues stand in square brackets, D forms with d. Residues, ends and D or L forms follow the SMILES beside them. Bip = N[C@@H](Cc1ccc(-c2ccccc2)cc1)C(=O)O; pY = N[C@@H](Cc1ccc(OP(=O)(O)O)cc1)C(=O)O; pT = C[C@@H](OP(=O)(O)O)[C@H](N)C(=O)O; 2Nal = N[C@@H](Cc1ccc2ccccc2c1)C(=O)O

# MOLECULE, MEASURED_ON, RESULT_MODIFIER, MIC, µM
data = [
    ("COc1cccc(OC)c1C(=O)N[C@@H]1C(=O)N2[C@@H]1SC(C)(C)[C@@H]2C(=O)O [METHICILLIN]", "Staphylococcus aureus", ">", 128),
    ("CC(C)C[C@H](NC(=O)[C@H](CC(C)C)NC(=O)[C@@H](NC(=O)[C@H](CCCCN)NC(=O)[C@H](Cc1ccc2ccccc2c1)NC(=O)[C@H](CCCNC(=N)N)NC(=O)[C@H](CCCCN)NC(=O)[C@H](CC(C)C)NC(=O)[C@H](CC(C)C)NC(=O)CN)[C@@H](C)O)C(N)=O (H-GLLKR[2Nal]KTLL-NH2)", "Staphylococcus aureus", "=", 8),
    ("CC(C)C[C@H](NC(=O)[C@H](CC(C)C)NC(=O)[C@H](Cc1ccc(OP(=O)(O)O)cc1)NC(=O)[C@H](CCCCN)NC(=O)[C@H](CC(C)C)NC(=O)[C@H](CCCNC(=N)N)NC(=O)[C@H](CCCCN)NC(=O)[C@H](Cc1c[nH]c2ccccc12)NC(=O)[C@H](CC(C)C)NC(=O)CN)C(N)=O (H-GLWKRLK[pY]LL-NH2)", "Staphylococcus aureus", "=", 8),
    ("CC(C)C[C@H](NC(=O)[C@H](CC(C)C)NC(=O)[C@@H](NC(=O)[C@H](CCCCN)NC(=O)[C@H](CC(C)C)NC(=O)[C@H](CCCNC(=N)N)NC(=O)[C@H](CCCCN)NC(=O)[C@H](Cc1ccc(-c2ccccc2)cc1)NC(=O)[C@H](CC(C)C)NC(=O)CN)[C@@H](C)OP(=O)(O)O)C(N)=O (H-GL[Bip]KRLK[pT]LL-NH2)", "Staphylococcus aureus", "=", 16),
    ("C[C@@H](O)[C@H]1C(=O)N2C(C(=O)O)=C(S[C@@H]3CN[C@H](C(=O)N(C)C)C3)[C@H](C)[C@H]12 [MEROPENEM]", "Staphylococcus aureus", "<", 1),
    ("NC[C@H]1O[C@H](O[C@H]2[C@H](O)[C@@H](O[C@H]3O[C@H](CO)[C@@H](O)[C@H](N)[C@H]3O)[C@H](N)C[C@@H]2N)[C@H](O)[C@@H](O)[C@@H]1O [KANAMYCIN]", "Staphylococcus aureus", "=", 64),
    ("CC(C)C[C@H](NC(=O)[C@H](CC(C)C)NC(=O)[C@@H](NC(=O)[C@H](CCCCN)NC(=O)[C@H](CC(C)C)NC(=O)[C@H](CCCNC(=N)N)NC(=O)[C@H](CCCCN)NC(=O)[C@H](Cc1ccc2ccccc2c1)NC(=O)[C@H](CC(C)C)NC(=O)CN)[C@@H](C)OP(=O)(O)O)C(N)=O (H-GL[2Nal]KRLK[pT]LL-NH2)", "Staphylococcus aureus", "=", 64),
]
